From: patent US11332470B2

- MEASUREMENT_NOTES: Mouse brain uptake assay (pharmacokinetics and brain penetration after IV administration)
- Format: in vivo, Male CD1 Mice
- CONDITION_SET: male, CD1, brain and plasma; mouse, 3 mg/kg IV, 0-1 h, 3 time points; read-out: Kp (brain/plasma drug concentration ratio, AUC last(b)/AUC last(p))
ATTRIBUTE_MEASURED: Kp
Just the number, please, no unit after it.

Here's what some known entries look like.
| MOLECULE | Kp |
| --- | --- |
| CN1CCN(c2cccc3[nH]c(CN4CCCC4c4ncccc4Cl)nc23)CC1 (stereo not drawn) [Compound I-26] | 1.86 |
| Cc1cccnc1C1CCCN1Cc1nc2ccccc2n1C1CCN(C)CC1 (stereo not drawn) [Compound I-33] | 6.6 |

Then there is this molecule:
Q: May I ask what Kp has been recorded for Cc1cccnc1CN1CCCC1c1nc2cccc(N3CCN(C)CC3)c2[nH]1 (stereo not drawn) [Compound I-45] ?
Result: 5.51

====

- MEASUREMENT_NOTES: in vitro
- CONDITION_SET: human, Caco-2, pH 7.4
ATTRIBUTE_MEASURED: Papp B→A at 90 min, 10 μM

| COMPOUND | Papp B→A at 90 min, 10 μM |
| --- | --- |
| Cc1cccnc1C1CCCN1Cc1nc2cccc(N3CCN(C)C4(CC4)C3)c2[nH]1 (centres unmarked) | 10 to 30 ×10⁻⁶ cm/s |

Then there is this compound:
Q: May I ask what Papp B→A at 90 min, 10 μM has been recorded for CN1CCC(Cn2ccnc2CN2CCCC2c2ccccn2)CC1 (centres unmarked) ?
Result: 10 to 30 ×10⁻⁶ cm/s

====

- ASSAYED_SYSTEM: CXCR4 (Jurkat cells expressing CXCR4) (Homo sapiens, UniProt P61073)
- Construct: Jurkat cells expressing CXCR4; endogenous in cells
- Sequence (P61073 whole entry): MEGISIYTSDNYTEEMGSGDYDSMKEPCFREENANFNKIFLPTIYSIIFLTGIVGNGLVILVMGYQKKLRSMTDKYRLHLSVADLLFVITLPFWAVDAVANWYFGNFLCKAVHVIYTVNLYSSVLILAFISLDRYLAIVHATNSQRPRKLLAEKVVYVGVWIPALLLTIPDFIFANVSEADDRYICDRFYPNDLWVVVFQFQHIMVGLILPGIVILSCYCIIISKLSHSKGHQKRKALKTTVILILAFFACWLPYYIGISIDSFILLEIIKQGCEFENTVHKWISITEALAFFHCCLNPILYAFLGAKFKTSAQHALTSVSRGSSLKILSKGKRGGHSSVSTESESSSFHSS
- MEASUREMENT_NOTES: Chemokine (CXCL12-AF647) binding inhibition assay
- CONDITION_SET: CXCL12-AF647 25 ng/mL, read-out: IC50 CXCL-12 binding Jurkat
ATTRIBUTE_MEASURED: IC50

| MOLECULE | ASSAYED_SYSTEM | IC50 |
| --- | --- | --- |
| CN1CCN(c2cccc3nc(CN4CCCC4c4nccc5ccccc45)cn23)CC1 (centres unmarked) | CXCR4 (Jurkat cells expressing CXCR4) (Homo sapiens, UniProt P61073) | 0.01 to 100 nM |
| Cc1cccnc1C1CCCN1Cc1ccccc1-n1cccn1 (centres unmarked) | CXCR4 (Jurkat cells expressing CXCR4) (Homo sapiens, UniProt P61073) | ≥ 1000 nM |
| CN1CCN(c2c(CN3CCCC3c3nccs3)nc3ccccn23)CC1 (centres unmarked) | CXCR4 (Jurkat cells expressing CXCR4) (Homo sapiens, UniProt P61073) | 0.01 to 100 nM |
| Cc1c(CN2CCCC2c2ncccc2Cl)nc2cccc(N3CCN(C)CC3)n12 (centres unmarked) | CXCR4 (Jurkat cells expressing CXCR4) (Homo sapiens, UniProt P61073) | 0.01 to 100 nM |
| N#CCCc1cccc2nc(CN3CCCC3c3ccccn3)cn12 (centres unmarked) | CXCR4 (Jurkat cells expressing CXCR4) (Homo sapiens, UniProt P61073) | ≥ 1000 nM |
| Cc1cccnc1C1CCCN1Cc1nccn1CC1CCN(c2ccccn2)CC1 (centres unmarked) | CXCR4 (Jurkat cells expressing CXCR4) (Homo sapiens, UniProt P61073) | 100 to 1000 nM |
| CN1CCN(c2cccc3nc(C4CCCN4Cc4ncccn4)[nH]c23)CC1 (centres unmarked) | CXCR4 (Jurkat cells expressing CXCR4) (Homo sapiens, UniProt P61073) | ≥ 1000 nM |
| Cc1cccnc1C1CCCCN1Cc1ccccc1-n1cccn1 (centres unmarked) | CXCR4 (Jurkat cells expressing CXCR4) (Homo sapiens, UniProt P61073) | ≥ 1000 nM |

Q: May I ask what IC50 has been recorded for Cc1cccnc1C1CCCN1Cc1nc2cccc(N3CCN(C)CC3)n2c1C (centres unmarked) ?
Result: 0.01 to 100 nM

Q: May I ask what IC50 has been recorded for Cc1cccnc1C1CCCN1Cc1nc2ccccn2c1CN1CCOCC1 (centres unmarked) ?
Result: 0.01 to 100 nM

Q: May I ask what IC50 has been recorded for CN1CCN(c2cccc3nc(CN4CCCC4c4ncccc4Cl)c(F)n23)CC1 (centres unmarked) ?
Result: 100 to 1000 nM

Q: May I ask what IC50 has been recorded for Cc1cccnc1C1CCCN1Cc1nccn1-c1cccnc1 (centres unmarked) ?
Result: 100 to 1000 nM

Q: May I ask what IC50 has been recorded for CN1CCC(Cn2ccnc2CN2CCCC2c2ccccn2)CC1 (centres unmarked) ?
Result: 0.01 to 100 nM

Q: May I ask what IC50 has been recorded for Cc1cccnc1C1CCCN1Cc1ncccc1-n1cccn1 (centres unmarked) ?
Result: 100 to 1000 nM

Q: May I ask what IC50 has been recorded for Cc1cccnc1C1CCCN1Cc1nc2ccccc2n1C1CCN(C)CC1 (centres unmarked) ?
Result: 0.01 to 100 nM

Q: May I ask what IC50 has been recorded for c1ccc(C2CCCN2Cc2ncccc2-n2cccn2)nc1 (centres unmarked) ?
Result: ≥ 1000 nM

Q: May I ask what IC50 has been recorded for Cc1cccnc1C1CCCN1Cc1nc2cccc(N3CCN(C)CC3)n2c1F (centres unmarked) ?
Result: 100 to 1000 nM

Q: May I ask what IC50 has been recorded for CN1CCN(c2c(CN3CCCC3c3nccn3C)nc3ccccn23)CC1 (centres unmarked) ?
Result: 0.01 to 100 nM

Q: May I ask what IC50 has been recorded for Cc1cccnc1C1CCCN1Cc1cn2c(CCC#N)cccc2n1 (centres unmarked) ?
Result: 100 to 1000 nM

Q: May I ask what IC50 has been recorded for N#CCCc1c(CN2CCCC2c2ccccn2)nc2ccccn12 (centres unmarked) ?
Result: 100 to 1000 nM
